This collection of values is drawn from the supplement of paper PMC10567573.

B1: SPDEF (parent)
chain: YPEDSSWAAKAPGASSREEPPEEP

variants of: B1; experiment: protein stability index of a GFP-peptide fusion (GPS, HEK-293T) (PSI 1-6); higher = more stable; settings: c terminus: a fixed tail appended;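 note: lentivirally expressed fusions sorted by FACS into six bins by GFP to DsRed ratio, PSI derived from sequencing read proportions per bin multiplied by bin number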
Recorded endpoint: protein stability index
Returns: the value as a bare number; no unit string appended.

{"Variant designation": "G13T", "protein stability index": 3.91}
{"Variant designation": "D4P", "protein stability index": 2.09}
{"Variant designation": "A8H", "protein stability index": 2.87}
{"Variant designation": "E22H", "protein stability index": 4.06}
{"Variant designation": "A9V", "protein stability index": 3.82}
{"Variant designation": "S15L", "protein stability index": 3.58}

Using the record for P12I , report its protein stability index.
3.62

Using the record for P21K , report its protein stability index.
3.29
